ASSAYED TARGET: Genome polyprotein (Dengue virus type 2 (strain 16681-PDK53)) (UniProt P29991)
Sequence (P29991 whole entry, looked up): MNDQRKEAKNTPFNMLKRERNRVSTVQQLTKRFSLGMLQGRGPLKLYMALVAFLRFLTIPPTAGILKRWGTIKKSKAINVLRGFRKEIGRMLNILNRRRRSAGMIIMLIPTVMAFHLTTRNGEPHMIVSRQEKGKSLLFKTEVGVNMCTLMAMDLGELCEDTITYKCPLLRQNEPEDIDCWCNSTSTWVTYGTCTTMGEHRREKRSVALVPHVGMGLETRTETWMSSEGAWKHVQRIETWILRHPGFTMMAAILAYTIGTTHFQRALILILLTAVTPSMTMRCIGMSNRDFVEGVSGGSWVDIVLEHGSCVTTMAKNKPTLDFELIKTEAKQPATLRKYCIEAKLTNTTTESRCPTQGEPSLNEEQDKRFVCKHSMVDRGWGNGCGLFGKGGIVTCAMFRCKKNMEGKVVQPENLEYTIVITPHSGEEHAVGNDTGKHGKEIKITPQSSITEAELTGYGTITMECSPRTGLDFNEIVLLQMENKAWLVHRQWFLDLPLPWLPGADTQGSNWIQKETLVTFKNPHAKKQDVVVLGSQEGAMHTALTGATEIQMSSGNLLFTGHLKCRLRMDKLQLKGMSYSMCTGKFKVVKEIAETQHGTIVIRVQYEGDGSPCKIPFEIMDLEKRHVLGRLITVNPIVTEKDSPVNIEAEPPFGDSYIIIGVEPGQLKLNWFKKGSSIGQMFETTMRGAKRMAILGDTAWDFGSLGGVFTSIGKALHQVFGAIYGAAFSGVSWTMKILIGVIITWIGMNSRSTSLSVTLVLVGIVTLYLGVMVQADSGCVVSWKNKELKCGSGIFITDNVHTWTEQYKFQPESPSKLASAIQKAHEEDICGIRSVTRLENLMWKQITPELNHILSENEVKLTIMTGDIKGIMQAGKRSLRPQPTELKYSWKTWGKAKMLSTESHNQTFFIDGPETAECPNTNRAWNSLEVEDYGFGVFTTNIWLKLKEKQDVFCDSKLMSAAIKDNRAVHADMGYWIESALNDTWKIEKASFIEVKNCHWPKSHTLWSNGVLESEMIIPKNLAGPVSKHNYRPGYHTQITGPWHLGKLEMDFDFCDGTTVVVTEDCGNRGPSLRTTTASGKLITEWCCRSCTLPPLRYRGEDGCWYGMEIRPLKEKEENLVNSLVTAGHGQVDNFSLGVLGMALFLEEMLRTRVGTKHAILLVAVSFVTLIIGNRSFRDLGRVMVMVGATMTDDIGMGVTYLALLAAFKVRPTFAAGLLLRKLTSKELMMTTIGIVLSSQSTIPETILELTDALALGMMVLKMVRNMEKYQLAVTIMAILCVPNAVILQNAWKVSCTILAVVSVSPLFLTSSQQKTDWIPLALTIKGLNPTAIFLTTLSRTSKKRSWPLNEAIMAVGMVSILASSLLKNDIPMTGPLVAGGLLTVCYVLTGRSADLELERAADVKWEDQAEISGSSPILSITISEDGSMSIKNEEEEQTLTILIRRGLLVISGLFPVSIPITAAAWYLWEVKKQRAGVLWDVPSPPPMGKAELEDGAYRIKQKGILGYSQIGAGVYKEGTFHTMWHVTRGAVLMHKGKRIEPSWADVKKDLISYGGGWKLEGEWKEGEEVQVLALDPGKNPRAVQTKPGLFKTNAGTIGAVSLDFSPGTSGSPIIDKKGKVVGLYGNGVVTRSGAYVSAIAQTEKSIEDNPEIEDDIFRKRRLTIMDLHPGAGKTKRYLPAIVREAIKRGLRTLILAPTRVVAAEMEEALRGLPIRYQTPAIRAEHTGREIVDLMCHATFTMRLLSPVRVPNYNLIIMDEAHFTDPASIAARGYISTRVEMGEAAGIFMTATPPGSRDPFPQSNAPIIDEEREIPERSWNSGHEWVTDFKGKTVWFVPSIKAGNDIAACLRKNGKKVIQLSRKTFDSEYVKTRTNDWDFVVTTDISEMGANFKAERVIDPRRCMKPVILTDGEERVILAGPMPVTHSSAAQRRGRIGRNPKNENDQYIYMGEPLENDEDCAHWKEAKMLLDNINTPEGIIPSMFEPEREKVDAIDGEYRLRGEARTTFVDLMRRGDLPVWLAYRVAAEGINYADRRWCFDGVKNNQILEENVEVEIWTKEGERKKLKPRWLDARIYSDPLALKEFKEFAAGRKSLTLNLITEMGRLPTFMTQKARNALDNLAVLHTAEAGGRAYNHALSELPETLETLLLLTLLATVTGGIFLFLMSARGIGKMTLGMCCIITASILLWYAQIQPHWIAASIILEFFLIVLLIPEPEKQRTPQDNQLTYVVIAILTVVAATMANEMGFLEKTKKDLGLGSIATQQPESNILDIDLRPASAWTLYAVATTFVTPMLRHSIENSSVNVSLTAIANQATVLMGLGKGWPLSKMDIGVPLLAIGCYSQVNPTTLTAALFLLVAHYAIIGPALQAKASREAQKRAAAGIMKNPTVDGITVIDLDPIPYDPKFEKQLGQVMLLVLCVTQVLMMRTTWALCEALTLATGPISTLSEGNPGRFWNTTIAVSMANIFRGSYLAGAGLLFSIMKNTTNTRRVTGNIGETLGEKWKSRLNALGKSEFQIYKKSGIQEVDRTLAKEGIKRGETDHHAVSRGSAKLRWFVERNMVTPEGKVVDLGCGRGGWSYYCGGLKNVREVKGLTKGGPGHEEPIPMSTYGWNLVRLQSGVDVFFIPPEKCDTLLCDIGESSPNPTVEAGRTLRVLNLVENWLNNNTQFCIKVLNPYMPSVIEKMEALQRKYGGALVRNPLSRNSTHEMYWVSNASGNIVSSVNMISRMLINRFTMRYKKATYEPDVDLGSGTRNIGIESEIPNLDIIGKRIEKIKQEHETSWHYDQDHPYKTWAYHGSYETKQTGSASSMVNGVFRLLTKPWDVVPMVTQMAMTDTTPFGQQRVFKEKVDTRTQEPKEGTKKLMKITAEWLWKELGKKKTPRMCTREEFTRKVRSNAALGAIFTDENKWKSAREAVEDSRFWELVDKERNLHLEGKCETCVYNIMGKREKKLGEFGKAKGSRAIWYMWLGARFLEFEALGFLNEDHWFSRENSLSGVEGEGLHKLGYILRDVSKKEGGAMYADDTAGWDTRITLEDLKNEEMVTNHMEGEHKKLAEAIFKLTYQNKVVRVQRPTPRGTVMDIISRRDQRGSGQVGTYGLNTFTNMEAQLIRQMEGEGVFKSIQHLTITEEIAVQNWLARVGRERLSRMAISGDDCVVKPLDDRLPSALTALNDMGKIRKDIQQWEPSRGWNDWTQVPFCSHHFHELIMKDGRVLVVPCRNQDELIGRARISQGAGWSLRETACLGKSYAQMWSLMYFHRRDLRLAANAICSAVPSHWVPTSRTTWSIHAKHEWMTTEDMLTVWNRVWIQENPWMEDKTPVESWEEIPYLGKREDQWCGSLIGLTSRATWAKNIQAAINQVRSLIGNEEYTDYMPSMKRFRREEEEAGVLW
TEST METHOD NOTES: flavivirus cap methylation enzyme inhibition – biochemical, confirmation dose response, primary screen (AID 588689)
STUDY CONDITIONS: Dengue-2 NS5 methyltransferase capping enzyme assay, at 25 µM, stronger effect = higher value
Hit rate of the full screen: of about 340,000 compounds, about 1,000 (0.29%) were called active. These entries were drawn from the full list. Potency and affinity values are given separately.
MEASURE: inhibition (%)

smiles_structure=COc1ccc2nc3c(nc2c1)CCCC3 meas_value=-8.49
smiles_structure=COc1ccc2nc3ccccc3nc2c1 meas_value=18.8
smiles_structure=Cc1cc(C(F)(F)F)c(C#N)c(SCC(=O)NC(C)(C)C)n1 meas_value=-2.7
smiles_structure=O=Cc1cccn1-c1ccc(O)cc1 meas_value=-5.89
smiles_structure=CCc1nc2ccc(C(=O)NCCc3ccco3)cc2nc1CC meas_value=-11.5

Provenance of the data: PubChem BioAssay AID588689
